Value source: the supplement of paper PMC9170038

Exercise: state measured apparent KD of K4 kissing-loop reporter for each of the sequences provided.
Test system: K4 kissing-loop RNA reporter;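 further: bound reporter read as fluorescence of individual clusters on recovered sequencing chips by microscopy, with normalized cluster intensities fitted with a binding model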
Measurement Protocol: apparent KD of K4 kissing-loop reporter; higher = weaker reporter binding
Test Parameters: Eterna round: R107; input ligand: theophylline 20 uM
Answers are plain numbers, in nM.

[
  {
    "Biosequence": "GGUUUAUAGGAGGAUACCAGUACGGAUAAAGUACGUUAAUAGUAGAGUGAUGUUCUAAAGUACCCUUGGCAGCUUAGAGUGAGUU [ExTheophylB.L]",
    "Target Or Test System": "K4 kissing-loop RNA reporter",
    "apparent KD of K4 kissing-loop reporter (nM)": 159
  }
]

Lab note: each sequence below needs its apparent KD of K4 kissing-loop reporter filled in.
1. AAUUUAUUAACUGAUACCAGACUUUAGCGCGUUUAUAAGUCAAGUGAUGUUUGACUAAUUGUCCCUUGGCAGCAGUAUUUAUUAA [JR_SSTheophyB_Sub021]
2. AGUAGGAAACUACAAUCCUCUCUUACUGAAGGAGCGCGUGAAAACGCAGGUAGGUCGCAGGAUUGGAGAGUGAUGUUCUCCUUAA [Ex Arginine A K4 17]
3. CUCGACACGGGAAGGAGCGGUUGCGUGUGCCAGUGAUGUUGGAUCAGCAGACUGCCCGGUAGCCAGGUAGGUCGCCUGUGCUGAG [Esbeescexe]
4. CCUAUCUCAUACGAUACCAGUCAAUGAGAUUUUAUCAAUGCCAUCACCGAGUGAUGUUCGGACCCUUGGCAGCGUAUGGGAUAGG [#02 K4 Theophylline B Exclusion]
5. UGAUAGGACAGAAGGAGCGGUAGUGAUGUUGCCAAAAGGUUAAGGUGUCAAAAGACACCCUACCAGGUAGGUCGCUGUCCUAUCU

**A:**
157
413
189
298
193

###

Tested on: MS2 coat protein
Measurement Protocol: apparent KD of MS2 coat protein; higher = weaker reporter binding
Test Parameters: Eterna round: R107; input ligand: tryptophan 2.4 mM
Outcome label depends on apparent KD of MS2 coat protein relative to 0.02 µM: at/above gives t, below gives f.

See these solved cases before continuing.
[
  {
    "Biosequence": "CAUAUAUAUAGAAGGAGCGUCGAAAAUGGGUAAACAUGAGGAUCACCCAUGUAAAGGGAACGACAGGUAGGUCGCUAUAUAUAUG [AstromonsSSArgB#3]",
    "Classification": "t"
  },
  {
    "Biosequence": "GCACUACAUGAGGAUCACCCAUGUGCAGAUACCAGAGGUGUAUGCCUCCCUUGGCAGCUGCGUCGCUCUGGAAGCCUAUUGGUUU [Same State Theophylline A GF16]",
    "Classification": "f"
  },
  {
    "Biosequence": "UGUAACAUGAGGAUCACCCAUGUGAGUGAUACCAGAUAAGUAGUAGUCCCUUGGCAGCAUAUUGGGCGAGUGUAUAGUCUAUGCG [Same State - Theophylline A (Freestyle 9)]",
    "Classification": "t"
  },
  {
    "Biosequence": "AUGUAGCCGUCGACUGUACCUUAUGCCGAUACCAGCUACCCGUGAAGCCCUUGGCAGCGGGAAACAUGAGGAUCACCCAUGUCAG [theeternabot_exclusion_MS2_Theo_A_13]",
    "Classification": "t"
  },
  {
    "Biosequence": "GCCAAAAUACCCGAUACCAGUAUUAAUAGCACAACCUCACACAUGAGGAUCACCCAUGUAUACCCUUGGCAGCGGCCUAACAUAA [theeternabot_exclusion_MS2_Theo_B_49]",
    "Classification": "t"
  }
]

**Q:** # check: apparent KD of MS2 coat protein of ACAUUUAACUGAAGGAGCGUGAUAUACAUGAGGAUCACCCAUGUGUCUUUCAUGAAUAAUUCACAGGUAGGUCGCAGACUAAUGA [JR_ExcArginiB_Sub008] is greater than or equal to 0.02 µM
**A:** t

**Q:** Confirm if apparent KD of MS2 coat protein reported for the sequence AUGCAUAGCGGAAGGAGCGCAAUAGAAUGACAUGAGGAUCACCCAUGUAUGUGAUGUGGGUUGCAGGUAGGUCGCCGAGUGGUAU [Exclusion - Arginine B (Freestyle 1)] is 0.02 µM or above.
**A:** t

**Q:** Is apparent KD of MS2 coat protein at least 0.02 µM? Consider `UUCAGCUAGUCGGCCGCCACUACAUGAGGAUCACCCAUGUAUCCUAAACACUGCUUCGGCAGUGGUAGGACCGGGACUAGCUGAG`
**A:** t

**Q:** # check: apparent KD of MS2 coat protein of GUCCUAGCGAGCGCUCGCUAGGACGCGGAUACCAGCGAGGUCCAUCGCCCUUGGCAGCCGAACAUGAGGAUCACCCAUGUCGGUA [#1 Same State - Theophylline A Attempt #16 (HarryS)] is greater than or equal to 0.02 µM
**A:** f

**Q:** Please indicate if the recorded apparent KD of MS2 coat protein for AGUACUCGAACGGAUACCAGCCGGACAUGAGGAUCACCCAUGUCCUACCAUGUCUCGGUUGGCCCUUGGCAGCCGUUCGUGUACA [Omei Theo B SS A v2] meets or exceeds 0.02 µM.
**A:** t

###

Test system: MS2 coat protein
Measurement Protocol: apparent KD of MS2 coat protein; designed switch direction (-1 OFF switch, 1 ON switch): -1; higher = weaker reporter binding
Test Parameters: input ligand: none
Measure: apparent KD of MS2 coat protein (nM)
One number for each entry, in nM.

[
  {
    "Biosequence": "GACUAAACACGAGGAUAUGCCUGGGAAGAACAGGCAGAAGGCGUGACAUGAGGAUCACCCAUGUAGCCGGGCUAUUCUCGUACG [Tirearerar] (Eterna round: R96, puzzle: Exclusion NG 1)",
    "Target Or Test System": "MS2 coat protein",
    "apparent KD of MS2 coat protein [nM]": 30.3
  },
  {
    "Biosequence": "GACCGGGCAGGAUAUACAAAACCUCGGUGUAUUUUGGACCGACAUGAGGAUCACCCAUGUAGAAGGGCCUAAGG [Eternabot (Original) Solution 4] (Eterna round: R97, puzzle: Exclusion 2)",
    "Target Or Test System": "MS2 coat protein",
    "apparent KD of MS2 coat protein [nM]": 23.6
  },
  {
    "Biosequence": "CCGUGGUUAGGAUAUUCGAAUGAGCACAUGAGGAUCACCCAUGUCUGAAUUGACAGCCGAGAAGAAGGAACCACUC [Eternabot (L2) Solution 24] (Eterna round: R97, puzzle: Exclusion 5)",
    "Target Or Test System": "MS2 coat protein",
    "apparent KD of MS2 coat protein [nM]": 23.3
  }
]

// switching to the query sequence
**Q:** Entry GGUAAGUGUGACUUGGGUGACAUGAGGAUCACCCAUGUCACAAGCUUGUUGCUCGCCUUGUAAUUAACCCAUGUCAC [LRO Sensor-off var1-28 mod of Stov1-13-A1 by Brourd] (Eterna round: R97, puzzle: Sensor, turn-off variant 1) : reported apparent KD of MS2 coat protein = ?
**A:** 18.6

###

Provide the recorded apparent KD of MS2 coat protein for the entries that follow.
System: MS2 coat protein
Measurement Protocol: apparent KD of MS2 coat protein; higher = weaker reporter binding
Test Parameters: Eterna round: R107; input ligand: theophylline 20 uM
One number for each entry, in nM.

In the examples that follow, each entry is paired with its recorded apparent KD of MS2 coat protein.
[
  {
    "Biosequence": "AAUCUGUCGGGUGAUACCAGCCUCGGCACGUCUCGUGCCGAACAUGAGGAUCACCCAUGUGGCCCUUGGCAGCACAUGACAAAUC [Teaton]",
    "Scale Unit": "nM",
    "apparent KD of MS2 coat protein": 729
  },
  {
    "Biosequence": "GUUAUAUUAAUUGAUACCAGCGAGAAAACAUGAGGAUCACCCAUGUUCGCCCAUGUUAAGCGCCCUUGGCAGCAAUUUUAUUAGC [AstrosExyTheB#2]",
    "Scale Unit": "nM",
    "apparent KD of MS2 coat protein": 44.3
  },
  {
    "Biosequence": "CGAUCUUUCGAAAGAAGGAUCUUGUCUGAUACCAGAGACGAAAGUCUCCCUUGGCAGCAGUGCCAACAUGAGGAUCACCCAUGUU [Theophylline A 11]",
    "Scale Unit": "nM",
    "apparent KD of MS2 coat protein": 17.6
  }
]

For the 4 sequences below, give their apparent KD of MS2 coat protein values.
1. GAUGAUAUUGCAGAUACCAGACACAUGAGGAUCACCCAUGUCUCUGAGAUGAAGGAUCGUGUCCCUUGGCAGCUGCGAUAUCAUC [Bulgaria]
2. AGUACACGAACUGAUACCAGCCGGACAUGAGGAUCACCCAUGUCCUACCUCUGUUCGGUUGGCCCUUGGCAGCAGUUCGUGUACA [Omei Theo B SS A v9]
3. CGUGGUGGGACGGAUACCAGCCACCGCGGCAACGCAACAUGAGGAUCACCCAUGUUGGGUGGCCCUUGGCAGCUGUCCUGCGGCG [#1 Same State - Theophylline B Attempt #26 (HarryS)]
4. UUACAUGAGGAUCACCCAUGUCAUAAUGAUACCAGAUAGUUAAUGAUCCCUUGGCAGCAUAAUACCUAGACAUUUAAGUCAUAGG [Aa]

**A:**
1. 72.9
2. 391
3. 15
4. 80
